Tested on: A-375
Assay: Cytotoxicity against human A375 cells after 48 hrs by resazurin assay
Assay type: functional, cell-based
Conditions: A-375, 48 h
reportedMetric: IC50 (µM)
Provide the reading as a plain figure in µM.

Entry O=C1/C(=C/c2ccc([N+](=O)[O-])cc2)CC(O)C/C1=C\c1ccc([N+](=O)[O-])cc1 (stereo unspecified) : reported IC50 = ?
6.1
